Species: Rattus norvegicus
TEST_METHOD_NOTES: Open TG-GATES - Regimen: Daily Repeat
Type: toxicity, organism-based, Sprague-Dawley
Set-up: regimen Daily Repeat, gender Male, age 6 weeks
RECORDED_CONDITIONS: in vivo, po, 1000 mg/kg, […], tissue Plasma, route gavage, dose level High, time 7 day
Please provide measured TC for the entries that follow.
Give bare numbers, in mg/dL.

> print(dat)
                                   compound  observed.property  readout.units  value
1  CCCCNC(=O)NS(=O)(=O)c1ccc(C)cc1 [TOLBUTAMIDE]                 TC          mg/dL   74.2
2    CC(S)C(=O)NCC(=O)O (centres undefined)                 TC          mg/dL   67.8
3                   O=C(O)c1ccccc1Nc1ccccc1                 TC          mg/dL   87.7

Could you now look at the following compound, please?
Which measured TC value corresponds to `CC(=O)[C@@]1(O)CC[C@H]2[C@@H]3C=C(Cl)C4=CC(=O)CC[C@]4(C)[C@H]3CC[C@@]21C` ?
83.2

* * *

Species: Rattus norvegicus
TEST_METHOD_NOTES: Open TG-GATES - Regimen: Daily Repeat
Format: toxicity, organism-based, Sprague-Dawley
Design: regimen Daily Repeat, gender Male, age 6 weeks
RECORDED_CONDITIONS: in vivo, po, 100 mg/kg, […], tissue Plasma, route gavage, dose level Low, time 7 day
OBSERVED_PROPERTY: A/G
Give bare numbers.

See these solved cases before continuing.
> print(dat)
                                   compound  value
1    CC(S)C(=O)NCC(=O)O (centres undefined)    1.1
2  CC(=O)[C@@]1(O)CC[C@H]2[C@@H]3C=C(Cl)C4=CC(=O)CC[C@]4(C)[C@H]3CC[C@@]21C    1.2
3                   O=C(O)c1ccccc1Nc1ccccc1    0.9

Could you now look at the following compound, please?
Which measured A/G value corresponds to CCCCNC(=O)NS(=O)(=O)c1ccc(C)cc1 [TOLBUTAMIDE] ?
0.9

* * *

Species on record: Rattus norvegicus
TEST_METHOD_NOTES: Open TG-GATES - Regimen: Single
Type: toxicity, organism-based, Sprague-Dawley
Parameters: regimen Single, gender Male, age 6 weeks
RECORDED_CONDITIONS: in vivo, po, 0 mg/kg, 6 h, tissue Plasma, route gavage, dose level Control
Please provide measured AST for the entries that follow.
Give bare numbers, in IU/L.

> print(dat)
                                compound  observed.property  readout.units  value
1  CC(S)C(=O)NCC(=O)O (stereo not given)                AST           IU/L   69.6

For each of the compounds below, state AST.
1. NS(=O)(=O)c1cc(C(=O)O)c(NCc2ccco2)cc1Cl [FUROSEMIDE]
2. COc1ccc([C@@H]2Sc3ccccc3N(CCN(C)C)C(=O)[C@@H]2OC(C)=O)cc1
3. CC(=O)[C@@]1(O)CC[C@H]2[C@@H]3C=C(Cl)C4=CC(=O)CC[C@]4(C)[C@H]3CC[C@@]21C

1: 70.6; 2: 69.4; 3: 74.6

Which measured AST value corresponds to CCCCNC(=O)NS(=O)(=O)c1ccc(C)cc1 [TOLBUTAMIDE] ?
66.4

* * *

Please provide measured Plat for the entries that follow.
Organism: Rattus norvegicus
TEST_METHOD_NOTES: Open TG-GATES - Regimen: Daily Repeat
Assay type: toxicity, organism-based, Sprague-Dawley
Design: regimen Daily Repeat, gender Male, age 6 weeks
RECORDED_CONDITIONS: in vivo, po, 100 mg/kg, 72 h, tissue Blood, route gavage, dose level Low, time 3 day
Answers are plain numbers, in x10_4/uL.

See these solved cases before continuing.
> print(dat)
                                   molecule  readout.units  value
1  CC(S)C(=O)NCC(=O)O (centres undefined) [TIOPRONIN]       x10_4/uL  120.9
2    O=C(O)c1ccccc1Nc1ccccc1 [FENAMIC ACID]       x10_4/uL  122.4
3  CCCCNC(=O)NS(=O)(=O)c1ccc(C)cc1 [TOLBUTAMIDE]       x10_4/uL  118.8

Could you now look at the following molecule, please?
Which measured Plat value corresponds to CC(=O)[C@@]1(O)CC[C@H]2[C@@H]3C=C(Cl)C4=CC(=O)CC[C@]4(C)[C@H]3CC[C@@]21C [CHLORMADINONE] ?
122.1

* * *

Please provide measured IP for the entries that follow.
Species: Rattus norvegicus
TEST_METHOD_NOTES: Open TG-GATES - Regimen: Daily Repeat
Assay type: toxicity, organism-based, Sprague-Dawley
Design: regimen Daily Repeat, gender Male, age 6 weeks
RECORDED_CONDITIONS: in vivo, po, 300 mg/kg, […], tissue Plasma, route gavage, dose level Middle, time 14 day
Numbers only, in mg/dL.

See these solved cases before continuing.
> print(dat)
                                   compound  readout.units  value
1  CC(=O)[C@@]1(O)CC[C@H]2[C@@H]3C=C(Cl)C4=CC(=O)CC[C@]4(C)[C@H]3CC[C@@]21C [CHLORMADINONE]          mg/dL    6.9
2  CC(S)C(=O)NCC(=O)O (centres undefined) [TIOPRONIN]          mg/dL    6.5

For each of the compounds below, state IP.
1. CCCCNC(=O)NS(=O)(=O)c1ccc(C)cc1 [TOLBUTAMIDE]
2. O=C(O)c1ccccc1Nc1ccccc1 [FENAMIC ACID]

[6.9, 6.5]

* * *

Species on record: Rattus norvegicus
TEST_METHOD_NOTES: Open TG-GATES - Regimen: Daily Repeat
Type: toxicity, organism-based, Sprague-Dawley
Parameters: regimen Daily Repeat, gender Male, age 6 weeks
RECORDED_CONDITIONS: in vivo, po, 100 mg/kg, 72 h, tissue Plasma, route gavage, dose level Low, time 3 day
OBSERVED_PROPERTY: TG (mg/dL)
Give bare numbers, in mg/dL.

See these solved cases before continuing.
> print(dat)
                                   compound  value
1                   O=C(O)c1ccccc1Nc1ccccc1   72.2
2    CC(S)C(=O)NCC(=O)O (centres undefined)  107.2
3  CC(=O)[C@@]1(O)CC[C@H]2[C@@H]3C=C(Cl)C4=CC(=O)CC[C@]4(C)[C@H]3CC[C@@]21C  129.4

Could you now look at the following compound, please?
Which measured TG value corresponds to CCCCNC(=O)NS(=O)(=O)c1ccc(C)cc1 [TOLBUTAMIDE] ?
99.4

* * *

Species on record: Rattus norvegicus
TEST_METHOD_NOTES: Open TG-GATES - Regimen: Single
Format: toxicity, organism-based, Sprague-Dawley
Set-up: regimen Single, gender Male, age 6 weeks
RECORDED_CONDITIONS: in vivo, po, 0 mg/kg, 3 h, tissue Blood, route gavage, dose level Control
OBSERVED_PROPERTY: MCV (fL)
Give bare numbers, in fL.

> print(dat)
                                   compound  observed.property  readout.units  value
1  NS(=O)(=O)c1cc(C(=O)O)c(NCc2ccco2)cc1Cl [FUROSEMIDE]                MCV             fL   64.8

For each of the compounds below, state MCV.
1. CCO
2. Nc1ccc(Cc2ccc(N)cc2)cc1

[64.2, 63.9]

* * *

Species on record: Rattus norvegicus
TEST_METHOD_NOTES: Open TG-GATES - Regimen: Single
Assay type: toxicity, organism-based, Sprague-Dawley
Set-up: regimen Single, gender Male, age 6 weeks
RECORDED_CONDITIONS: in vivo, po, 0 mg/kg, 9 h, tissue Plasma, route gavage, dose level Control
OBSERVED_PROPERTY: AST (IU/L)
Numbers only, in IU/L.

> print(dat)
                               compound  observed.property  value
1  CN(C/C=C/C#CC(C)(C)C)Cc1cccc2ccccc12                AST   62.8

For each of the compounds below, state AST.
1. CC(S)C(=O)NCC(=O)O (stereo not given)
2. CCCCNC(=O)NS(=O)(=O)c1ccc(C)cc1 [TOLBUTAMIDE]
3. O=C(O)c1ccccc1Nc1ccccc1
4. CN(CCOc1ccc(CC2SC(=O)NC2=O)cc1)c1ccccn1.O=C(O)/C=C\C(=O)O (stereo not given) [ROSIGLITAZONE MALEATE]
5. COc1cc2ncnc(Nc3ccc(F)c(Cl)c3)c2cc1OCCCN1CCOCC1
6. O=c1ccc2ccccc2o1
7. COc1ccc([C@@H]2Sc3ccccc3N(CCN(C)C)C(=O)[C@@H]2OC(C)=O)cc1
8. CCO

65.8
73.8
77.6
68.8
67.2
59.4
75.4
66.8

Which measured AST value corresponds to NS(=O)(=O)c1cc(C(=O)O)c(NCc2ccco2)cc1Cl [FUROSEMIDE] ?
68.2
